target: human recombinant Monoacylglycerol Lipase (Homo sapiens); assay: MAGL inhibition enzymatic assay, fluorogenic substrate 7-HCA, IC50 at T=0 min or after 30 minute incubation (T=30 min); format: biochemical; conditions: T = 0 min (substrate added immediately); geometric mean of 2-4 determinations unless otherwise indicated; read-out: MAGL (T = 0 min) IC50
The label Y is reserved for IC50 strictly under 100 nM; N covers values equal to or above it.

Completed entries (count: 6):
# compound, label value
data = [
    ("C[N+](C)(C)CCOP(=O)([O-])OC[C@@H](OC(=O)N1CCC2(CC1)CN(S(=O)(=O)c1ccc(F)cc1)CCO2)C(F)(F)F [Example 90]", "N"),
    ("O=C(O[C@H](CO)C(F)(F)F)N1CCC(CN(Cc2ccc(F)cc2)C2CCOCC2)CC1 [Example 50]", "N"),
    ("CN(C1COC2(CCN(C(=O)O[C@H](CO)C(F)(F)F)CC2)C1)S(=O)(=O)c1ccc(F)cc1 (single isomer, unassigned) [Example 111]", "Y"),
    ("O=C(O[C@H](CO)C(F)(F)F)N1CCC2(CC1)CCN(S(=O)(=O)c1nccs1)C2 [Example 134]", "Y"),
    ("O=C(O[C@H](CO)C(F)(F)F)N1CCC2(CCCN(S(=O)(=O)c3ccc(F)cc3)C2)CC1 [Example 12]", "N"),
    ("O=C(O[C@H](CO)C(F)(F)F)N1CCC2(CC1)CC(OCc1ccccc1)CO2 (mixture of isomers) [Example 132]", "N"),
]

For the next question, use this compound.
Req: Does the reported IC50 of the following compound sit strictly below 100 nM? O=C(O[C@H](CO)C(F)(F)F)N1C[C@@H]2[C@H](C1)[C@H]2c1ccn(-c2ccc(F)cc2)n1 [Example 3]
Resp: Y

---

Listing: MAGL kinact/KI of selected molecules
molecular target: human recombinant Monoacylglycerol Lipase (Homo sapiens, UniProt Q99685); test: MAGL inactivation, enzyme progress curves, kinact/KI; type: biochemical; settings: from enzyme progress curves, T = 0 min protocol; geometric mean of 2-4 determinations unless otherwise indicated
Sequence (Q99685 whole entry): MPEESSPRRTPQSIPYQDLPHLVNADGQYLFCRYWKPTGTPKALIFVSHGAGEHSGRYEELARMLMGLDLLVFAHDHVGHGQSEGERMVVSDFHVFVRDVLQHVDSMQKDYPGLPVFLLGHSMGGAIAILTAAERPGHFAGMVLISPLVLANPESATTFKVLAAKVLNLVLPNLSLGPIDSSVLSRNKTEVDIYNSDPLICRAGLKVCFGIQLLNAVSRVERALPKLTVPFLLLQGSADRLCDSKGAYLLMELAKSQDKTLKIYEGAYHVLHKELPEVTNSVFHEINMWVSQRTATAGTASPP

For orientation, consider the following solved cases.
# molecule, test target, MAGL kinact/KI
rows = [
    ("CN(C1COC2(CCN(C(=O)O[C@H](CO)C(F)(F)F)CC2)C1)S(=O)(=O)C1CCCC1 (mixture of isomers) [Example 112]", "human recombinant Monoacylglycerol Lipase (Homo sapiens, UniProt Q99685)", "14232 1/s per M"),
    ("O=C(O[C@H](CO)C(F)(F)F)N1CCC2(CC1)CN(S(=O)(=O)c1cccc(F)c1)CCO2 [Example 11]", "human recombinant Monoacylglycerol Lipase (Homo sapiens, UniProt Q99685)", "147964 1/s per M"),
    ("Cc1ccc(OC2CCN(C(=O)O[C@H](CO)C(F)(F)F)CC2)nc1 [Example 57]", "human recombinant Monoacylglycerol Lipase (Homo sapiens, UniProt Q99685)", "5998 1/s per M"),
    ("CC(C)c1cccc(S(=O)(=O)N2CCOC3(CCN(C(=O)O[C@H](CO)C(F)(F)F)CC3)C2)c1 [Example 66]", "human recombinant Monoacylglycerol Lipase (Homo sapiens, UniProt Q99685)", "430364 1/s per M"),
]

Proceed to the following item.
Req: Quick check: MAGL kinact/KI of O=C(O[C@H](CO)C(F)(F)F)N1CCC2(CC1)CCN(C(=O)c1ccccc1)C2 [Example 126] ?
Resp: 3723 1/s per M
